Below, each of the compounds is paired with its reported pIC50 value.
- TARGET DESC: purified human IDO protein (Homo sapiens, UniProt P14902)
- Sequence (P14902 whole entry P110S/E119G): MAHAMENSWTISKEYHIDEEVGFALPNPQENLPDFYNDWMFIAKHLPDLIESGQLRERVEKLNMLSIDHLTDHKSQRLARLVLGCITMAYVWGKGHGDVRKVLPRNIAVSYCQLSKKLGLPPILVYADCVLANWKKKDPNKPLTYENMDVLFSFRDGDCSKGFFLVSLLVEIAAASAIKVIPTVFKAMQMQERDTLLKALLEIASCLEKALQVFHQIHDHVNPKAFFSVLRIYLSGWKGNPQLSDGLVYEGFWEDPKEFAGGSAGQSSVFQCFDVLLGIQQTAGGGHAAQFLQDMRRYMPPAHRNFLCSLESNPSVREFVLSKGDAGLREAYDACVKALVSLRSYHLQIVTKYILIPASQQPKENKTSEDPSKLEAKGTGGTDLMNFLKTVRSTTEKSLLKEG
- TEST DETAILS: Enzymatic IDO assay (kynurenine production, absorbance 480 nm)
- CONDITIONS USED: hIDO IC50, recombinant human IDO, enzymatic activity; values reported in ranges
pIC50: −log10 of the molar value.

- COMPOUND: "S=C1SCCCN1Cc1ccccc1"
  TARGET DESC: "purified human IDO protein (Homo sapiens, UniProt P14902)"
  pIC50: "3.00 to 4.00"
- COMPOUND: "Oc1cccc2ccccc12"
  TARGET DESC: "purified human IDO protein (Homo sapiens, UniProt P14902)"
  pIC50: "3.00 to 4.00"
- COMPOUND: "COc1ccc(CCSC(=S)NCCc2c[nH]c3ccccc23)cc1"
  TARGET DESC: "purified human IDO protein (Homo sapiens, UniProt P14902)"
  pIC50: "3.00 to 4.00"
- COMPOUND: "O=C(O)CCn1[nH]c(=O)c2ccccc21"
  TARGET DESC: "purified human IDO protein (Homo sapiens, UniProt P14902)"
  pIC50: "3.00 to 4.00"
- COMPOUND: "S=C(NCCc1c[nH]c2ccccc12)SCc1cc2c(cc1Br)OCO2"
  TARGET DESC: "purified human IDO protein (Homo sapiens, UniProt P14902)"
  pIC50: "4.00 to 4.70"
- COMPOUND: "CC(=O)C1C2CCC(C2)C1(C)C (stereo not shown)"
  TARGET DESC: "purified human IDO protein (Homo sapiens, UniProt P14902)"
  pIC50: "3.00 to 4.00"
- COMPOUND: "CC(CSC(=S)NCCc1c[nH]c2ccccc12)c1ccccc1 (stereo not shown)"
  TARGET DESC: "purified human IDO protein (Homo sapiens, UniProt P14902)"
  pIC50: "3.00 to 4.00"
- COMPOUND: "CC1=C(CN2C(=O)c3ccccc3C2=O)C(=O)c2ccccc2C1=O"
  TARGET DESC: "purified human IDO protein (Homo sapiens, UniProt P14902)"
  pIC50: "4.00 to 4.70"
- COMPOUND: "S=C(NCCc1c[nH]c2ccccc12)SCCc1ccc2c(c1)OCCO2"
  TARGET DESC: "purified human IDO protein (Homo sapiens, UniProt P14902)"
  pIC50: "3.00 to 4.00"
- COMPOUND: "O=C1C=C(O)C(=O)c2nc(O)ccc21 [compound 320, 2,7-dihydroxyquinoline-5,8-dione]"
  TARGET DESC: "purified human IDO protein (Homo sapiens, UniProt P14902)"
  pIC50: "> 4.70"
- COMPOUND: "S=C1OCCN1Cc1ccc2ccccc2c1"
  TARGET DESC: "purified human IDO protein (Homo sapiens, UniProt P14902)"
  pIC50: "3.00 to 4.00"
- COMPOUND: "Cn1[nH]c(=O)c(=O)nc1SCc1ccc2ccccc2c1"
  TARGET DESC: "purified human IDO protein (Homo sapiens, UniProt P14902)"
  pIC50: "3.00 to 4.00"
- COMPOUND: "S=C(NCCc1c[nH]c2ccccc12)SCc1noc2ccccc12"
  TARGET DESC: "purified human IDO protein (Homo sapiens, UniProt P14902)"
  pIC50: "4.00 to 4.70"
- COMPOUND: "S=C1OCCN1Cc1ccccc1"
  TARGET DESC: "purified human IDO protein (Homo sapiens, UniProt P14902)"
  pIC50: "3.00 to 4.00"
- COMPOUND: "Cc1ccc(CCSC(=S)NCCc2c[nH]c3ccccc23)cc1"
  TARGET DESC: "purified human IDO protein (Homo sapiens, UniProt P14902)"
  pIC50: "3.00 to 4.00"
- COMPOUND: "O=C(Cc1ccc2ccccc2c1)NO [compound 827, N-hydroxy-2-(naphthalen-2-yl)acetamide]"
  TARGET DESC: "purified human IDO protein (Homo sapiens, UniProt P14902)"
  pIC50: "3.00 to 4.00"
- COMPOUND: "CSC(=S)NCCc1ccc(C)cc1C"
  TARGET DESC: "purified human IDO protein (Homo sapiens, UniProt P14902)"
  pIC50: "3.00 to 4.00"
- COMPOUND: "S=C(NCCc1c[nH]c2ccccc12)SCCc1ccc(Br)cc1"
  TARGET DESC: "purified human IDO protein (Homo sapiens, UniProt P14902)"
  pIC50: "3.00 to 4.00"
- COMPOUND: "S=C(NCc1ccc2ccccc2c1)Nc1nccs1"
  TARGET DESC: "purified human IDO protein (Homo sapiens, UniProt P14902)"
  pIC50: "3.00 to 4.00"
- COMPOUND: "Cc1c(O)c(=O)ccn1CCc1c[nH]c2ccccc12"
  TARGET DESC: "purified human IDO protein (Homo sapiens, UniProt P14902)"
  pIC50: "3.00 to 4.00"
- COMPOUND: "Cc1cccc(CCSC(=S)NCCc2c[nH]c3ccccc23)c1"
  TARGET DESC: "purified human IDO protein (Homo sapiens, UniProt P14902)"
  pIC50: "3.00 to 4.00"
- COMPOUND: "S=C(NCCc1c[nH]c2ccccc12)SCCc1c[nH]c2ccccc12"
  TARGET DESC: "purified human IDO protein (Homo sapiens, UniProt P14902)"
  pIC50: "3.00 to 4.00"
- COMPOUND: "Nc1ccc2[nH]cc(CCC(=O)O)c2c1"
  TARGET DESC: "purified human IDO protein (Homo sapiens, UniProt P14902)"
  pIC50: "3.00 to 4.00"
- COMPOUND: "Oc1ccccc1C(=S)NCCc1csc2ccccc12"
  TARGET DESC: "purified human IDO protein (Homo sapiens, UniProt P14902)"
  pIC50: "3.00 to 4.00"
- COMPOUND: "CCC(CC)C1NC(C(=O)O)Cc2c1[nH]c1ccccc21 (stereo not shown)"
  TARGET DESC: "purified human IDO protein (Homo sapiens, UniProt P14902)"
  pIC50: "3.00 to 4.00"
- COMPOUND: "NC(CSC(=S)NCc1ccccc1)C(=O)O (stereo not shown)"
  TARGET DESC: "purified human IDO protein (Homo sapiens, UniProt P14902)"
  pIC50: "3.00 to 4.00"
- COMPOUND: "Oc1noc(O)c1-c1ccccc1"
  TARGET DESC: "purified human IDO protein (Homo sapiens, UniProt P14902)"
  pIC50: "3.00 to 4.00"
- COMPOUND: "NC(=O)C(=O)NNc1ccccc1 [compound 312, 2-oxo-2-(2-phenylhydrazinyl)acetamide]"
  TARGET DESC: "purified human IDO protein (Homo sapiens, UniProt P14902)"
  pIC50: "> 4.70"
- COMPOUND: "Cc1ccc2cc(CSC(=S)NCCc3c[nH]c4ccccc34)ccc2n1"
  TARGET DESC: "purified human IDO protein (Homo sapiens, UniProt P14902)"
  pIC50: "3.00 to 4.00"
- COMPOUND: "COc1cccc(CCSC(=S)NCCc2c[nH]c3ccccc23)c1"
  TARGET DESC: "purified human IDO protein (Homo sapiens, UniProt P14902)"
  pIC50: "3.00 to 4.00"
- COMPOUND: "Oc1ccccc1C(=S)NCc1ccccc1 [compound 656, N-Benzyl-2-hydroxybenzothioamide]"
  TARGET DESC: "purified human IDO protein (Homo sapiens, UniProt P14902)"
  pIC50: "3.00 to 4.00"

====

This section presents compounds with their documented pEC50 values.
- TARGET DESC: human IDO (Homo sapiens)
- TEST DETAILS: Cell based IDO/kynurenine assay in IDO-293-T-Rex cells
- CONDITIONS USED: kynurenine production, 293T cell line stably expressing human IDO; values reported in ranges; read-out: hIDO EC50
pEC50: −log10 of the molar value.
PROPERTY MEASURED: pEC50

- COMPOUND: "S=C(NCCC1CCc2ccccc2O1)SCc1ccc2ccccc2c1 (stereo not drawn)"
  OBSERVED RESULT: "4.00 to 4.70"
- COMPOUND: "O=C1CSC(=S)N1Cc1c[nH]c2ccccc12"
  OBSERVED RESULT: "3.00 to 4.00"
- COMPOUND: "Nc1ccc2[nH]cc(CCC(=O)O)c2c1"
  OBSERVED RESULT: "2.00 to 3.00"

====

- TARGET DESC: human IDO (Homo sapiens, UniProt P14902)
- Sequence (P14902 whole entry): as the sequence (P14902 whole entry P110S/E119G) above, with S110P, G119E counted along it
- TEST DETAILS: Cell based IDO/kynurenine assay in IDO-293-T-Rex cells
- CONDITIONS USED: kynurenine production, 293T cell line stably expressing human IDO; values reported in ranges; read-out: hIDO EC50
pEC50: −log10 of the molar value.

- COMPOUND: "Cn1[nH]c(=O)c(=O)nc1SCc1ccc2ccccc2c1 [compound 682]"
  pEC50: "3.00 to 4.00"
- COMPOUND: "CSC(=S)NCCc1c[nH]c2cc(Cl)cc(Cl)c12 [compound 43]"
  pEC50: "3.00 to 4.00"
- COMPOUND: "O=C1C(CSC(=S)Nc2ccccc2)NC(=S)N1c1ccccc1 (stereo not drawn) [compound 151]"
  pEC50: "3.00 to 4.00"
- COMPOUND: "NC(CSC(=S)NCCCc1ccccc1)C(=O)O (stereo not drawn) [compound 140]"
  pEC50: "4.00 to 4.70"
- COMPOUND: "Oc1ccccc1C(=S)NCCc1c[nH]c2ccccc12 [compound 644]"
  pEC50: "4.00 to 4.70"
- COMPOUND: "CSC(=S)NCCc1c[nH]c2c(Cl)cc(Cl)cc12 [compound 42]"
  pEC50: "3.00 to 4.00"
- COMPOUND: "O=C(Cc1csc(=S)[nH]1)NCc1ccc2ccccc2c1 [compound 701]"
  pEC50: "3.00 to 4.00"
- COMPOUND: "Fc1ccc(CCSC(=S)NCCc2c[nH]c3ccccc23)cc1 [compound 3]"
  pEC50: "3.00 to 4.00"
- COMPOUND: "S=C(NCCc1noc2ccccc12)SCc1ccc2ccccc2c1 [compound 58]"
  pEC50: "4.00 to 4.70"
- COMPOUND: "S=C(NCCc1c[nH]c2ccccc12)SCCc1cccc(Cl)c1 [compound 8]"
  pEC50: "3.00 to 4.00"
- COMPOUND: "Nc1ccccc1NC(=O)CCc1csc2ccccc12 [compound 739]"
  pEC50: "3.00 to 4.00"
- COMPOUND: "Oc1ccccc1C(=S)NCCc1csc2ccccc12 [compound 672]"
  pEC50: "4.00 to 4.70"
- COMPOUND: "S=C(NCCc1c[nH]c2ccccc12)SCc1ccc2c(c1)OCO2 [compound 50]"
  pEC50: "4.00 to 4.70"
- COMPOUND: "CC(=O)C1C2CCC(C2)C1(C)C (stereo not drawn) [compound 289]"
  pEC50: "2.00 to 3.00"
- COMPOUND: "Nc1ccccc1NC(=O)CCCc1c[nH]c2ccccc12 [compound 588]"
  pEC50: "3.00 to 4.00"
- COMPOUND: "Cc1ccc(C)c(C(C)CC(=O)O)c1 (stereo not drawn) [compound 261, 3-(2,5-dimethylphenyl)butanoic acid]"
  pEC50: "4.00 to 4.70"
- COMPOUND: "CC(CC(=O)O)c1cccc([N+](=O)[O-])c1 (stereo not drawn) [compound 282, 3-(3-nitrophenyl)butanoic acid]"
  pEC50: "2.00 to 3.00"
- COMPOUND: "O=C(Cc1ccc2ccccc2c1)NO [compound 827, N-hydroxy-2-(naphthalen-2-yl)acetamide]"
  pEC50: "4.00 to 4.70"
- COMPOUND: "Cc1cc2ccccc2cc1CCSC(=S)NCCc1c[nH]c2ccccc12 [compound 47]"
  pEC50: "4.00 to 4.70"
- COMPOUND: "S=C(NCCc1c[nH]c2ccccc12)SCCc1ccccc1 [compound 1]"
  pEC50: "3.00 to 4.00"
- COMPOUND: "Cc1c(O)c(=O)ccn1CCc1c[nH]c2ccccc12 [compound 552]"
  pEC50: "4.00 to 4.70"
- COMPOUND: "CSC(=S)NCCc1c[nH]c2cc(F)c(F)c(F)c12 [compound 45]"
  pEC50: "3.00 to 4.00"
- COMPOUND: "Oc1ccccc1C(=S)NCCc1ccccc1 [compound 634, 2-Hydroxy-N-phenethylbenzothioamide]"
  pEC50: "3.00 to 4.00"
- COMPOUND: "NOCc1cccc([N+](=O)[O-])c1 [compound 317, O-(3-nitrobenzyl)hydroxylamine]"
  pEC50: "> 4.70"
- COMPOUND: "S=C(NCCc1c[nH]c2ccccc12)SCCc1ccc(Br)cc1 [compound 4]"
  pEC50: "4.00 to 4.70"
- COMPOUND: "CSC(=S)NCCCCCCc1c[nH]c2ccccc12 [compound 27]"
  pEC50: "3.00 to 4.00"
- COMPOUND: "Oc1cc(O)nc(SCc2ccccc2)n1 [compound 222, 2-(benzylthio)pyrimidine-4,6-diol]"
  pEC50: "4.00 to 4.70"
- COMPOUND: "CSC(=S)NCCc1c[nH]c2ccc(Cl)cc12 [compound 32]"
  pEC50: "4.00 to 4.70"
- COMPOUND: "Oc1cccc2ccccc12 [compound 168, naphthalen-1-ol]"
  pEC50: "3.00 to 4.00"
- COMPOUND: "COc1cccc(CCSC(=S)NCCc2c[nH]c3ccccc23)c1 [compound 10]"
  pEC50: "3.00 to 4.00"
